src = PubChem BioAssay AID652054

# EXPERIMENTAL_SYSTEM: D(3) dopamine receptor (Homo sapiens) (UniProt P35462)
# Sequence (P35462 whole entry, looked up): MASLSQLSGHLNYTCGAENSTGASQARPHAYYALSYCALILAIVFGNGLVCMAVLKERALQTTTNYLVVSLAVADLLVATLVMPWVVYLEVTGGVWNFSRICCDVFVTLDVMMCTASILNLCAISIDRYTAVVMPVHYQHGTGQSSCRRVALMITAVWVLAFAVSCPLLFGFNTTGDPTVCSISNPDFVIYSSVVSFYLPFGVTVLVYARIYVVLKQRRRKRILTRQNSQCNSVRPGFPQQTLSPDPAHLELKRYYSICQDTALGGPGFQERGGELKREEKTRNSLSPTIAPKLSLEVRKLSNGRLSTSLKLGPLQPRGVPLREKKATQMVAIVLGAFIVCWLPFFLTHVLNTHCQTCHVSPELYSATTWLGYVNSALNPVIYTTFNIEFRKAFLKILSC
# EXPERIMENT_DESCRIPTION: qHTS of D3 Dopamine Receptor Antagonist: qHTS
# PROTOCOL_CONDITIONS: D3R cells, DiscoveRx beta-arrestin luminescence, antagonist mode; hits give low values
Among all 360,000 compounds or so, about 9,100 (2.5%) were called active. About 4% were inconclusive and are not listed. The list comes from a sample in which actives are over-represented; it also holds close analogues and randomly drawn compounds.
So basically, if max response, negative = inhibition comes in under -80% it's condition met, and if it's -80% or more it's condition not met.

Solved entries (count: 3):
Challenge: Check if max response, negative = inhibition falls below -80% for `O[C@H]1C[C@H](c2ccc(Cl)cc2)N(Cc2cccs2)C[C@@H]1n1cc(C2CC2)nn1` .
Response given: condition not met

Challenge: Hi there! Is max response, negative = inhibition for `COCCCNCCOCCOc1ccc(Cl)cc1Br` below -80%, do you know?
Response given: condition met

Challenge: Quick check: does `CC(C)(C)N1C(=O)[C@H]2[C@@H](c3ccc(Br)cc3)N3C(=O)N(c4cccc(Cl)c4)C(=O)[C@@]3(C)[C@H]2C1=O` have max response, negative = inhibition under -80%?
Response given: condition not met

Here is another compound to look at.
Challenge: Below -80% on max response, negative = inhibition? Entry `COc1ccc(-c2ccc(C(=O)NC(C)C)c3occc23)c(C)c1`
Response given: condition not met
